Assign EC50 to each entry below.
molecular target: canine IL-31Rα (canine); experiment: ELISA, plate coated with cIL-31Rα at 1 µg/mL, detection with HRP anti-dog IgG Fc, OD450/540
Numbers only, in ng/mL.

Example cases with answers are listed next.
BINDER	EC50 / ng/mL
Caninized 28F12 H2k2 (antibody, V domains shown) VH: EVQLVESGGDLVKPGGSLRLSCAASGFTFSDYYMAWVRQAPGKGLQWVATISYDGSSTYYRDSVRGRFTISRDNAKNTLYLQMNSLRAEDTAMYYCARGPLTDWAPNWFAYWGQGTLVTVSS VL: EIVMTQSPASLSLSQEEKVTITCQTSEDIYSGLAWYQQKPGQAPKLLIYGASRLEDGVPSRFSGSGSGTDFSFTISSLEPEDVAVYYCQQGLKYPNTFGAGTKVELKR	1.74
Caninized 28F12 H1k3 (antibody, V domains shown) VH: EVQLVESGGDLVKPGGSLRLSCVASGFTFSDYYMAWVRQAPGKGLQWVATISYDGSSTYYRDSVRGRFTISRDNAKNTLYLQMNSLRAEDTAMYYCAKGPLTDWAPNWFAYWGQGTLVTVSS VL: DIVMTQSPASLSLSQEEKVTITCQTSEDIYSGLAWYQQKPGQAPKLLIYGASRLEDGVPSRFSGSGSGTDFSFTISSLEPEDVAVYFCQQGLKYPNTFGAGTKVELKR	1.74
Caninized 44E2 H5k2 (antibody, V domains shown) VH: ELTLQESGPGLVKPSQTLSLTCTVSGFSLTSNGVSWIRQRPGRGLEWMGAISSGGSTYYNSVLKSRISITADTAKNQFSLQLSSMTTEDTAVYYCARRLSGYNYVPFAYWGQGTLVTVSS VL: EIVMTQSPASLSLSQEEKVTITCKASQNIYKHLAWYQQKPGQAPKLLIYNANSLQTGIPSRFSGSGSGTDFSFTISSLEPEDVAVYFCQQYYSGDTFGAGTKVELKR	3.97

Look up EC50 for the entries below, preserving their order.
1. Caninized 44E2 H5k1 (antibody, V domains shown) VH: ELTLQESGPGLVKPSQTLSLTCTVSGFSLTSNGVSWIRQRPGRGLEWMGAISSGGSTYYNSVLKSRISITADTAKNQFSLQLSSMTTEDTAVYYCARRLSGYNYVPFAYWGQGTLVTVSS VL: EIVMTQSPASLSLSQEEKVTITCKASQNIYKHLAWYQQKPGQAPKLLIYNANSLQTGVPSRFSGSGSGTDFSFTISSLEPEDVAVYYCQQYYSGDTFGAGTKVELKR
2. Chimeric rat/canine 44E2 (antibody, V domains shown) VH: QVQLKESGPGLVQPSQTLSLTCTVSGFSLTSNGVSWVRQPPGKGLEWIAAISSGGSTYYNSVLKSRLSISRDTSKSQVFLKMNSLQTEDTAIYFCTRRLSGYNYVPFAYWGQGTLVTVSS VL: DIQMTQSPSLLSASVGDRVTLNCKASQNIYKHLAWCQQKLGEPPNLLISNANSLQTGIPSRFSGSGSGTDFTLTISSLQPEDVATYFCQQYYSGDTFGAGTKLELKR
3. Caninized 28F12 H2k3 (antibody, V domains shown) VH: EVQLVESGGDLVKPGGSLRLSCAASGFTFSDYYMAWVRQAPGKGLQWVATISYDGSSTYYRDSVRGRFTISRDNAKNTLYLQMNSLRAEDTAMYYCARGPLTDWAPNWFAYWGQGTLVTVSS VL: DIVMTQSPASLSLSQEEKVTITCQTSEDIYSGLAWYQQKPGQAPKLLIYGASRLEDGVPSRFSGSGSGTDFSFTISSLEPEDVAVYFCQQGLKYPNTFGAGTKVELKR
4. Chimeric rat/canine 28F12 (antibody, V domains shown) VH: EVQLVESDGGLAQPGRSLKLSCAASGFTFSDYYMAWVRQAPTKGLEWVATISYDGSSTYYRDSVRGRFTISRDNAKSTLYLQMDSLRSEDTATYYCARGPLTDWAPNWFAYWGQGTLVTVSS VL: DIQMTQSPASLSASLGETVTIQCQTSEDIYSGLAWYQQKPGKSPQFLIYGASRLEDGVPSRFSGSGSGTQYSLKISSMQTEDEGVYFCQQGLKYPNTFGAGTKLELKR

Found:
1. 1.35
2. 1.37
3. 1.74
4. 1.66

meta.source: patent US20240368249A1
